The entries below are paired with their reported double positive events.
- assay: modulators of CD8 T cell-vesicle binding, confirmation, cherry-picked primary hits, two concentrations (AID 2810);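 note: lower values mean blocking of vesicle binding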
- details: 2C CD8+ T cell-vesicle binding, flow cytometry; CD8+/vesicle+ events; at 7.7 µM
The whole screen tested about 1,200 compounds, of which about 65 (5%) were called active. The sample holds actives, similar compounds and a random draw of the others, so the mix is not that of the screen.
Output spec: scalar in %, unitless text.

Look over these answered cases.
Input line: Would you mind telling me what double positive events value was observed for CCCCN(C(=O)COC(=O)c1ccc(C=O)cc1)c1c(N)n(CCC)c(=O)[nH]c1=O ?
Output line: 9.2

Input line: Continue with CCc1ccc(OCc2cnc(Cl)s2)cc1
Output line: 11.6

Input line: Continue with CCCCn1c(N)c(N(CCOC)C(=O)c2c(CC)noc2C)c(=O)[nH]c1=O
Output line: 8.2

Input line: Continue with Cn1c(SCC(=O)Nc2ccc3cn[nH]c3c2)nnc1-c1cccs1
Output line: 12.5

Input line: Continue with COC(=O)[C@]1(C)N[C@H](CN(C)S(=O)(=O)c2ccc(OC(F)(F)F)cc2)[C@@H]2C(=O)N(C)C(=O)[C@@H]21
Output line: 9.2

Input line: Continue with CC(C)(C)NC(=O)CON=C1c2ccccc2-c2ccccc21
Output line: 8.8

Input line: Continue with CCC1(C)NC(=O)N(CC(=O)N2N=C(c3ccccc3)CC2c2ccc(OC)cc2)C1=O (stereo not given)
Output line: 9.6

Input line: Continue with CCOC(=O)N1CCN(Cc2nc(-c3ccc(C)cc3)no2)CC1
Output line: 14.7

Input line: Continue with Cc1ccc(/C=N/Nc2ccc(F)cc2F)s1
Output line: 17.7

In the following, a different compound is considered.
Input line: Would you mind telling me what double positive events value was observed for CCn1c(SCC(=O)NCC2CCCO2)nnc1-c1c[nH]c2ccccc12 (stereo not given) ?
Output line: 14.2

---

- assay: modulators of CD8 T cell-vesicle binding, confirmation, cherry-picked primary hits, two concentrations (AID 2810);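 note: lower values mean blocking of vesicle binding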
- details: 2C CD8+ T cell-vesicle binding, flow cytometry; CD8+/vesicle+ events; at 15.4 µM; stronger effect = lower value
In all, about 1,200 compounds went through this assay and about 65 (5%) were called active. What follows is part of a selection rich in actives, with near analogues and random picks from the rest.
observation type: double positive events (%)
Output spec: scalar in %, unitless text.

Input line: Would you mind telling me what double positive events value was observed for CN(CC(=O)Nc1cccc(F)c1)C(=O)c1ccc(S(=O)(=O)N2CCCC2)cc1 ?
Output line: 10.5

Input line: Continue with O=C(Cc1cccc(NC(=O)C2CCCN(C(=O)C3CC3)C2)c1)Nc1cccc(C(=O)N2CCCC2)c1 (centres undefined)
Output line: 13.2

Input line: Continue with C[N+]1(C)CC2([N+](=O)[O-])CC=C(Oc3ccccc3)C([N+](=O)[O-])(C2)C1 (centres undefined)
Output line: 3.4

Input line: Continue with COc1ccc(C(=O)CSc2nnc(CNC(=O)c3ccc(OC)c(OC)c3)n2C)cc1
Output line: 15.6

Input line: Continue with COc1cc(F)c(C2=CC(=O)C[C@H](c3ccc(F)cc3)C2)cc1F
Output line: 13.4

Input line: Continue with CCC(=O)NC(NC(=S)Nc1c(C)n(C)n(-c2ccccc2)c1=O)C(Cl)(Cl)Cl (centres undefined)
Output line: 13.9
